target: GRIP2_4, Q9C0E4; assay: holdup assay; design: key: below the threshold = too weak to quantify, mostly under pKd 3.1 to 4; conditions: plain residues with an end cap or a label only (N-terminal biotin on a linker: ado-ado)
Sequence (Q9C0E4 446-548): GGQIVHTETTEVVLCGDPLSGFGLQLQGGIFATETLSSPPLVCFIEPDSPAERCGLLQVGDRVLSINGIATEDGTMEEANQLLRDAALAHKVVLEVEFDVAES
observation-type: pKd

{"binder": "IGHEDLETAV [DGKI, O75912]", "observation-type": "pKd", "result": "below the threshold"}
{"binder": "STYCDYTIEI [FAM71C, Q8NEG0]", "observation-type": "pKd", "result": "below the threshold"}
{"binder": "PKSNSSKEYV [CLDN7, O95471]", "observation-type": "pKd", "result": "below the threshold"}
{"binder": "NKSEPFLTWL [WWTR1, Q9GZV5]", "observation-type": "pKd", "result": "below the threshold"}
